I'd appreciate it if you could supply pKi values for the items below.
assay_target: Estrogen receptor (Homo sapiens, UniProt P03372)
Sequence (P03372 whole entry): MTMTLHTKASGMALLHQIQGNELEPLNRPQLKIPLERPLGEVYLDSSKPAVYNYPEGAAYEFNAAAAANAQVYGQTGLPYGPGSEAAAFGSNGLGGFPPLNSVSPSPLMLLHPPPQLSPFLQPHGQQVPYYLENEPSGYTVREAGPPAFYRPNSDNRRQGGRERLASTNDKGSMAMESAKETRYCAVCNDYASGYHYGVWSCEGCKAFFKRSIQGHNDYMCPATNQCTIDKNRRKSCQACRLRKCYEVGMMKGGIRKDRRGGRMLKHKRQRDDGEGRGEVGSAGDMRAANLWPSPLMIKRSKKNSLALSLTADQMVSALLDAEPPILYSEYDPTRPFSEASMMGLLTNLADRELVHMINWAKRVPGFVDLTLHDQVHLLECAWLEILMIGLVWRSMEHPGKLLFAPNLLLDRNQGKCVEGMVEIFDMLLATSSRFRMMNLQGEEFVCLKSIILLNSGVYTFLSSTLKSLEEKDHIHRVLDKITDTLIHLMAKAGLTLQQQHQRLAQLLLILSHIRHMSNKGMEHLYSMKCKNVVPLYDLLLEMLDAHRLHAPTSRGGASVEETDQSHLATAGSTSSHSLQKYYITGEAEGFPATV
assay_overview: Antagonist activity at Estrogen receptor expressed in human Ishikawa cells assessed as inhibition of estradiol-induced increase in alkaline phosphatase after 3 days by spectrophotometry
Type: functional, cell-based
Please note pKi is a logarithmic value: minus log10 of concentration in mol/L. Answer with that number alone.

Value lookup for pKi; key = C[C@]12C[C@H](c3ccc(OCCOCCOCCn4cc(CNC5=CC(=O)c6ccccc6C5=O)nn4)cc3)[C@@H]3c4ccc(O)cc4CC[C@H]3[C@@H]1CC[C@@H]2O
8.96

Value lookup for pKi; key = C[C@]12C[C@H](c3ccc(OCCCCCS(=O)(=O)C(F)(F)C(F)(F)F)cc3)[C@@H]3c4ccc(O)cc4CC[C@H]3[C@@H]1CC[C@@H]2O
8.28

Measured values drawn from ChEMBL document CHEMBL2034856 for this set.
